Each entry below carries its reported pIC50.
Tested on: human colorectal carcinoma HT29 cells
Assay: MTT based cell proliferation assay, HT29
Settings: Homo sapiens, HT-29, 72 h, read-out: Cell proliferation inhibition in HT29 (Colon carcinoma), IC50
pIC50: −log10 of the molar value.
metric: pIC50

| structure | reported |
| --- | --- |
| CC(C)(C)c1cc(Nc2ncnc3[se]c4c(c23)CCCC4)c(C(N)=O)s1 | 5.03 |
| Cc1c(C(=O)NCCCl)[se]c2ncnc(Nc3ccc(F)c(Cl)c3)c12 | 5.03 |
| CC(C)(C)c1cc2ncnc(Nc3ccc(F)c(Cl)c3)c2[se]1 | 4.15 |
| CN(c1ccc(Cl)cc1)c1ncnc2[se]c3c(c12)CCNC3 | 4.88 |
| CC(C)(C)c1c[se]c2ncnc(Nc3ccc(F)c(Cl)c3)c12 | 4.42 |
| Clc1cc(Nc2ncnc3[se]c4c(c23)CCCC4)nc(Cl)n1 | 3.79 |
| Fc1ccc(Nc2ncnc3[se]c4c(c23)CCNC4)cc1Cl | 4.41 |
| Fc1ccc(Nc2ncnc3c4c([se]c23)CCCC4)cc1Cl | 3.93 |
